Target: recombinant soluble homotrimeric HA of A/chicken/Vietnam/NCVD-016/08 (H5N1) (Influenza A virus A/chicken/Vietnam/NCVD-016/2008(H5N1))
Experiment: trimeric HA microarray, transfection supernatant set 5
Conditions: remark: other sources report otherwise
Reported metric: Trimeric HA Binding: RLU
The reply must contain the numeric value and, after it, the unit.

Known results for binders:
TCN-541 (5062_M11) (antibody, V domains shown) VH: QVQLQESGPGLVKPSETLSLTCTVSGGSINSYYWNWIRQPPGKGLEWIGYIYHSGSTNYNPSLKSRVTISVDTSKNQFSLQLSSVTAADTAVYYCARLRTDYGDPDSVYYYGMDVWGQGTTVTVSS VL: SYELTQPPSVSVSPGQTARITCSGDALPKQNAYWYQQKPGQAPVLLIYKDSERPSGIPERFSGSSSGTTVTLTISGVQAEDEADYYCQSADSSGTSWVFGGGTKLTVL | 11000 RLU
TCN-542 (5079_A16) (antibody, V domains shown) VH: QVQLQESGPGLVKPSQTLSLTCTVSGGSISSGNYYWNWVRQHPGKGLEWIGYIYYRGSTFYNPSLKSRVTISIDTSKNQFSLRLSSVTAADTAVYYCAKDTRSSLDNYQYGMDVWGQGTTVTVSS VL: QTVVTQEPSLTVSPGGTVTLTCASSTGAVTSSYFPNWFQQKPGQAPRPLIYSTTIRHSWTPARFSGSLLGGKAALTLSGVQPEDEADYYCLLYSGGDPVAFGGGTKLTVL | 5460 RLU
TCN-544 (5082_A19) (antibody, V domains shown) VH: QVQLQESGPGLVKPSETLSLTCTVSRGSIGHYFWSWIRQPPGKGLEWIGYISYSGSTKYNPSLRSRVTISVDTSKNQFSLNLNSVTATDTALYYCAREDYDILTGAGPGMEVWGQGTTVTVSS VL: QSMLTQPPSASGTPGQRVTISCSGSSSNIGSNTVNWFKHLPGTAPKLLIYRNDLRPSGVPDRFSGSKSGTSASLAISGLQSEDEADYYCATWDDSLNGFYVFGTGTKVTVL | 3070 RLU
TCN-546 (5089_L08) (antibody, V domains shown) VH: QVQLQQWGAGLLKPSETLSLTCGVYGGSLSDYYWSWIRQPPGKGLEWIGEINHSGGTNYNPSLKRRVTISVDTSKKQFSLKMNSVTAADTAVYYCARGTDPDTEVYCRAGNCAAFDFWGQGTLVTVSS VL: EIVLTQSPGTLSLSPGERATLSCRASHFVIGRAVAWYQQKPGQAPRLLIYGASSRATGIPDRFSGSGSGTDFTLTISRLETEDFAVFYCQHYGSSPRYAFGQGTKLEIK | 2940 RLU

We next turn to a different binder, shown below.
What measured Trimeric HA Binding: RLU goes with TCN-537 (3194_D21) (antibody, V domains shown) VH: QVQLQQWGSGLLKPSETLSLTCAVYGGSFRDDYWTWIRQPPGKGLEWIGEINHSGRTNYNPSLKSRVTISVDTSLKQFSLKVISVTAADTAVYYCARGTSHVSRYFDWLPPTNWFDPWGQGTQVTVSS VL: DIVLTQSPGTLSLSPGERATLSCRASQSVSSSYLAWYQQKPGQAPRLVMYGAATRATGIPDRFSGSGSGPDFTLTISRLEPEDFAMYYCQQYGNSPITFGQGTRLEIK ?
4480 RLU
